test: PK protocol: pharmacokinetic parameters in male Sprague Dawley rats (intravenous or oral); type: in vivo; conditions: plasma, intravenous administration, 1 mg/kg, rat
Where a name gives a salt, the structure may show the parent alone.
MEASURED PARAMETER: AUC (ng·h/mL)
Field: numeric (ng·h/mL). Do not append units.

Form field AUC, entry CCN(CC)CCCS(=O)(=O)NC(=O)Nc1c(-c2cccnc2)cc(F)cc1C(C)C [Example 37] : 591

Notebook: CN(C)CCCS(=O)(=O)NC(=O)Nc1c2c(cc3c1CCC3)CCC2 [Example 8, potassium salt] , AUC read as 2350

Form: molecule = CCN(CC)CCCS(=O)(=O)NC(=O)Nc1c2c(cc3c1CCC3)CCC2 [Example 3, potassium salt] ; AUC = 1180

The molecule identified as O=C(Nc1c2c(cc3c1CCC3)CCC2)NS(=O)(=O)CCN1CCC1 [Example 29, Potassium Salt] registered its AUC at 2780

====

target: NLRP3 (Homo sapiens, UniProt Q96P20); assay: Human whole blood IL1β release assay (LPS + nigericin, AlphaLisa IL-1β); type: cell-based; set-up: Plate out 80 μl of whole blood containing 1βg/ml of LPS in 96-well, clear bottom cell culture plate; from tissue; host or cells: human whole blood from healthy donors, LPS-primed and nigericin-stimulated; details: NLRP3 inhibitory activity in human whole blood, IL-1β release, 10 μM nigericin, read-out: HWB IC50
Sequence (Q96P20 whole entry): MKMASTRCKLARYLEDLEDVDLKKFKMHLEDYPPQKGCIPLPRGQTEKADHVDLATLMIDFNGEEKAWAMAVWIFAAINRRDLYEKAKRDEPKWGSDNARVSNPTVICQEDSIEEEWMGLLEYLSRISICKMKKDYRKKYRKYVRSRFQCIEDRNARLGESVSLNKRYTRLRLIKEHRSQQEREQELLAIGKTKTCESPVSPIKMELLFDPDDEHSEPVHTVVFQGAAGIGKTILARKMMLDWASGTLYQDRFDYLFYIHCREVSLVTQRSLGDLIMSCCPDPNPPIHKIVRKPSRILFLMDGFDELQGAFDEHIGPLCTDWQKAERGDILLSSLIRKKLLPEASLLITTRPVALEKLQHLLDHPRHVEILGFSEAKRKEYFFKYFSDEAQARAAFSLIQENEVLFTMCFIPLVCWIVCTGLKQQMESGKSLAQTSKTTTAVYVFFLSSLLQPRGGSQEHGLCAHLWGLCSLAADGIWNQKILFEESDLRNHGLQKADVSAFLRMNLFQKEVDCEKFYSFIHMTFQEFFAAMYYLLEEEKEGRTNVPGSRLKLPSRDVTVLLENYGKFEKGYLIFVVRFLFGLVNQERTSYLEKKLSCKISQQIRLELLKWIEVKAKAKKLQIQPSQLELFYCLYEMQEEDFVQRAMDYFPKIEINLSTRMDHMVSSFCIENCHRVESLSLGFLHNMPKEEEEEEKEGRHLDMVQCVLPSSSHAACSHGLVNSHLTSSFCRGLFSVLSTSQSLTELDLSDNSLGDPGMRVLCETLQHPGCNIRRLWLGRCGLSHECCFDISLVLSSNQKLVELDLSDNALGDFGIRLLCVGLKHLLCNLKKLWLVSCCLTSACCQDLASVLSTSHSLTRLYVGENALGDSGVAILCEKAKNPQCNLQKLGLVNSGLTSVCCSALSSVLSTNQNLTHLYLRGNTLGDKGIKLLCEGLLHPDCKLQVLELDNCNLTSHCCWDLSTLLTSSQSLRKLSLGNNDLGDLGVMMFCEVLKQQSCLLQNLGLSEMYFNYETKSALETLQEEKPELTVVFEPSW
Counter-ions that a name gives are not always drawn.
Give IC50 for every item shown.

Recorded result, CC1(C)C2CC[C@@]1(CS(=O)(=O)NC(=O)Nc1c3c(cc4c1CCC4)CCC3)/C(=N/O)C2 [Example 71, Potassium Salt] , IC50: ≤ 10000 nM

Sample CN(C)CCCS(=O)(=O)NC(=O)Nc1c2c(cc3c1CCC3)CCC2 [Example 8, potassium salt] ; IC50 observed: ≤ 1000 nM

The recorded IC50 for CC1CC(C)N1CCS(=O)(=O)NC(=O)Nc1c2c(cc3c1CCC3)CCC2 (stereo not shown) [Example 103] is ≤ 1000 nM

Entry COc1cc(-c2ccc3c(c2NC(=O)NS(=O)(=O)CC2CCN(C)C2)CCC3)ccn1 (stereo not shown) [Example 59] , IC50 reported as ≤ 1000 nM

Reported IC50 of CCN(CC)CCCS(=O)(=O)NC(=O)Nc1c2c(cc3c1CCC3)CCC2 [Example 3, potassium salt] : ≤ 1000 nM

// CN1CCOC(CS(=O)(=O)NC(=O)Nc2c3c(cc4c2CCC4)CCC3)C1 (stereo not shown) [Example 74, Potassium Salt] : IC50 value = ≤ 5000 nM

Field IC50 (entry CCN(CCS(=O)(=O)NC(=O)Nc1c2c(cc3c1CCC3)CCC2)Cc1ccccc1 [Example 11, potassium salt] ) reads ≤ 7500 nM

The compound listed as CN(C)CC(C)(C)CS(=O)(=O)NC(=O)Nc1c2c(cc3c1CCC3)CCC2 [Example 81] has a reported IC50 of ≤ 5000 nM

Form field IC50, entry CCN1CCCC(CS(=O)(=O)NC(=O)Nc2c3c(cc4c2CCC4)CCC3)C1 (stereo not shown) [Example 84] : ≤ 1000 nM

Memo: Cn1cc(CS(=O)(=O)NC(=O)Nc2c3c(cc4c2CCC4)CCC3)cn1 [Example 35] , reported IC50: ≤ 5000 nM

Briefly, IC50 measured for CC(C)N1CC2(COC(CS(=O)(=O)NC(=O)Nc3c4c(cc5c3CCC5)CCC4)C2)C1 (stereo not shown) [Example 77, Potassium Salt] : ≤ 7500 nM

Lab note: measured IC50 of CCN(CC)CCCS(=O)(=O)NC(=O)Nc1c(-c2ccncc2)cc(F)c2c1CCC2 [Example 44] was ≤ 1000 nM

Kindly note the recorded IC50 for CN1CCCC1CS(=O)(=O)NC(=O)Nc1c2c(cc3c1CCC3)CCC2 (stereo not shown) [Example 105] , which is ≤ 1000 nM

Sure, the documented IC50 for CN(C)CCCCS(=O)(=O)NC(=O)Nc1c2c(cc3c1CCC3)CCC2 [Example 82] is ≤ 5000 nM

So for CON(C)CCCS(=O)(=O)NC(=O)Nc1c2c(cc3c1CCC3)CCC2 [Example 70, Potassium Salt] , the logged IC50 turned out to be ≤ 5000 nM

The value of IC50 measured for the compound CN1CCCC(CS(=O)(=O)NC(=O)Nc2c3c(cc4c2CCC4)CCC3)C1 (stereo not shown) [Example 83] turned out to be ≤ 1000 nM

Every entry's value here was drawn from patent US20200331850A1.
